# measured.on: T1, Fusion protein of extracellular domain of human TIGIT and His-tag (human TIGIT ECD-his) (human)
# T1 chain: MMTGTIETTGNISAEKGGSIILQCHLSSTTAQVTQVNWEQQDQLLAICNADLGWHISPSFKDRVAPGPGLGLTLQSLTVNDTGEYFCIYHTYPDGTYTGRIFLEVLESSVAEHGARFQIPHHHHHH
# assay.protocol: BIAcore
# maps each entry to its kon
Lab book: enter the figure in M⁻¹ s⁻¹, no units written.

{"binder": "TIGIT-CHI-005 (antibody, V domains shown, Human-mouse chimeric antibody) VH: QVQLQQSGAELVRPGTSVKVSCKASGYAFTNYLIEWVKQRPGQGLEWIGVINPGSGGTNYKEKFKGKATLTADKSSSTAYMQLSSLTSEDSAVYFCARGEYFFFDYWGQGTTLTVSS VL: DIVMTQSHKFMSTSVGDRVSITCKASQHVSNGVAWYQHKPGQSPKLLIYSASYRYTGVPDRFTGTGSGTDFTFTISSVQAEDLAVYYCQQHYNTPHTFGGGTKLEIK", "value.observed": "4.76e+06"}

Return reported kon; argument: TIGIT-002-H2L3 (antibody, V domains shown, Humanized anti-TIGIT antibody) VH: EVQLQESGPGLVKPSETLSLTCAVSGYSITSDSWNWIRQPPGKKLEWIGYISYSGNTYYNPSLKSRVTISRDTSKNQFSLKLSSVTAADTAVYYCARLDFSNYGGAVDYWGQGTTVTVSS VL: DIVMTQSPDSLAVSLGERATINCKASQNVRTAVAWYQQKPGQSPKLMIYSASYRYTGVPDRFSGSGSGTDFTLTISSLQAEDVAVYYCQQYYTTPWTFGGGTKVEIK
4.03e+06

And for TIGIT-005-H2L1a (antibody, V domains shown, Humanized anti-TIGIT antibody with NG-site mutation in VL) VH: EVQLVQSGAEVKKPGASVKVSCKASGYAFTNYLIEWVRQAPGQRLEWMGVINPGSGGTNYKEKFKGRVTITADKSSSTAYMELSSLRSEDTAVYYCARGEYFFFDYWGQGTTVTVSS VL: DIVMTQSPDSLAVSLGERATINCKASQHVSQGVAWYQHKPGQSPKLLIYSASYRYTGVPDRFSGSGSGTDFTLTISSLQAEDVAVYYCQQHYNTPHTFGGGTKVEIK ?
2.83e+06
